System: UO-31
assay-text: NCI tumour cell line growth inhibition, 48 h
Activity calls are given as the source filed them. No stated cut-off is given here; in the data, active = GI50 up to about 1.1 µM and inactive = higher.
measured-parameter: GI50

Q: Field request: GI50 | item: "CC(C)c1nc2cc(C(F)(F)F)ccc2[nH]c1=O"
Result: > 100 µM (inactive)

Q: Given the entry "N#C/C(=C\c1ccc2ccccc2c1)C(=O)c1ccccc1" , report its measured GI50.
Result: > 86.7 µM (inactive)

Q: Using the record for Oc1ccc(Cl)cc1C1=NC(NCN2CCN(CNC3=NC(c4ccccc4)CC(c4cc(Cl)ccc4O)=N3)CC2)=NC(c2ccccc2)C1 (stereo not given) , report its GI50.
Result: 37.3 µM (inactive)

Q: Given the compound N#CC(Cc1ccccc1)N(CCC1=CCCCC1)Cc1ccccc1 (stereo not given) , what is its reported GI50?
Result: > 100 µM (inactive)

Q: Recorded GI50 of CC1=Nc2ccccc2NC(c2ccoc2)C1 (stereo not given) , please.
Result: > 100 µM (inactive)

Q: Entry CN1C(=O)C23CCCC2CC1(c1ccccc1)S3 (stereo not given) : reported GI50 = ?
Result: > 100 µM (inactive)

Q: What value of GI50 has been recorded for this entry: "Cc1ccc(/N=N/c2c(-c3ccccc3)nn(C(=O)CC(=O)Nc3ccc(Cl)cc3)c2-c2ccccc2)cc1"
Result: 27.7 µM (inactive)

Q: What value of GI50 has been recorded for this entry: CCN(CC)[C@@H]1c2cc3c(cc2C(c2cc(OC)c(O)c(OC)c2)C2C(=O)CO[C@@H]21)OCO3 (stereo not given in full)
Result: > 100 µM (inactive)

Q: Any idea what its GI50 is? The compound is "O=P(CN1CCOCC1)(c1ccccc1)c1ccccc1"
Result: > 100 µM (inactive)

Q: Give the measured GI50 of "O=c1[nH]c2nc3ccccc3c(=O)n2/c1=C/c1ccc(O)cc1" .
Result: 53.7 µM (inactive)

---

Tested on: SF-268
assay-text: NCI tumour cell line growth inhibition, 48 h
Active and inactive are the calls of the source. Rule as the data show it: active = GI50 up to about 1.1 µM and inactive = higher.
measured-parameter: GI50

Worked examples follow.
CCOC(=O)C1=CCOc2cc(N(C)C)ccc21 :: 97.5 µM (inactive)
COC(=O)C(=O)C(C(=O)C=C(C)C)C(=O)C(=O)Nc1cc(C(F)(F)F)ccc1Cl (stereo unspecified) :: > 100 µM (inactive)
O=C1c2ccccc2C(=O)c2sc(Nc3cccc(Cl)c3)nc21 :: 2.01 µM (inactive)
CCOC(=O)Cn1nc2ccc(Nc3c(C)[n+]([O-])c4cc(F)c(OCC)cc4[n+]3[O-])cc2n1 :: 50.9 µM (inactive)
O=c1oc2ccccc2cc1P(=O)(O)O :: > 100 µM (inactive)

Q: Which value of GI50 has been reported for NC(=O)C12CCC1C1CCCCC12N1CCOCC1 (stereo unspecified) in the records?
Result: > 100 µM (inactive)

Q: Look at this molecule and give its reported GI50. COc1ccccc1N1C(=O)/C(=C\c2ccccc2)SC1c1cc(OC)c(OC)c(OC)c1 (stereo unspecified)
Result: 48.5 µM (inactive)

---

Test system: EKVX
assay-text: NCI tumour cell line growth inhibition, 48 h
Active and inactive are the calls of the source. Cut-off read from the data, not from the text of the source: active = GI50 up to about 1.1 µM and inactive = higher.
GI50 overview

Q: Value lookup for GI50; key = "N#Cc1c(-c2ccc(Cl)cc2)c2c([nH]c1=O)-c1cc([N+](=O)[O-])ccc1CCC2"
Result: 17.1 µM (inactive)

Q: Please look up its GI50: "N#Cc1c(C#N)c(SSc2c(C#N)c(C#N)c(N)n2-c2ccccc2)n(-c2ccccc2)c1N"
Result: 20.9 µM (inactive)

Q: So what does the record say about GI50 for "COc1cc2c(cc1OCCCCOc1cc3c(cc1OC)C(=O)N1CCC[C@H]1C(=O)N3)N=C[C@@H]1CCCN1C2=O" ?
Result: 12.5 µM (inactive)

Q: Find the recorded GI50 belonging to "O=C1C(NCCc2cc(Cl)c(O)c(Cl)c2)=CC(=O)c2[nH]cnc21" and report it.
Result: 32.1 µM (inactive)

// data source = ChEMBL document CHEMBL1201862
